Each entry below carries its recorded AUC(0-t) at 6 h.
- Assay Method Text: AUC (0 to 6 hrs) in rat at 10 mg/kg, po
- Type: ADME, organism-based
- Parameters: time < 6 hr, dose 10 mg/kg, route oral
- Conditions Used: plasma

[
  {
    "Cpd Smiles": "CCCc1nccc2sc(-c3c(C)nc(N[C@H](C)c4ccc(OC(F)(F)F)cc4)nc3N[C@@H]3C[C@H](CO)[C@@H](O)[C@H]3O)nc12",
    "AUC(0-t) at 6 h / µM·h": 0.8
  },
  {
    "Cpd Smiles": "Cc1ccc([C@@H](C)Nc2nc(C)c(-c3nc4cnccc4s3)c(N[C@@H]3C[C@H](CO)[C@@H](O)[C@H]3O)n2)cc1",
    "AUC(0-t) at 6 h / µM·h": 0.1
  },
  {
    "Cpd Smiles": "Cc1nc(N[C@H](C)c2ccc(OC(F)(F)F)cc2)nc(N[C@@H]2C[C@H](CO)[C@@H](O)[C@H]2O)c1-c1nc2c(CC(C)(C)C)nccc2s1",
    "AUC(0-t) at 6 h / µM·h": 3.2
  },
  {
    "Cpd Smiles": "Cc1nc(NC2CC2)nc(N[C@@H]2C[C@H](CO)[C@@H](O)[C@H]2O)c1-c1nc2cnccc2s1",
    "AUC(0-t) at 6 h / µM·h": 1.4
  }
]
